Measured Ratio OD(Variant)/OD(WT) of individual entries
- test.system: HRgpA-6H (Porphyromonas gingivalis) (UniProt P28784)
- test.method.notes: ELISA on coated HRgpA-6H, OD relative to parental Fab
Write the number in fold without appending the unit.

binder="KB001 mouse Fab variant VL A56T (Fab, V domains shown) VH: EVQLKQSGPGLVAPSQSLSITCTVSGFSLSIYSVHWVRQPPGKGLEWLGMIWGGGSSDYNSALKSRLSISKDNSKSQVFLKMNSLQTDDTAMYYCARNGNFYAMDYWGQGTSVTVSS VL: QIVLTQSPAIMSASLGERVTMTCTASSSVSSSFLHWYQQKPGSSPQLWIYSTSNLTSGVPARFSGSGSGTSYSLTISSMEAEDAATYYCHQYHHSPYIYTFGGGTKLEIK" units_symbol=fold data_value=0.896
binder="KB001 mouse Fab variant VL S57E (Fab, V domains shown) VH: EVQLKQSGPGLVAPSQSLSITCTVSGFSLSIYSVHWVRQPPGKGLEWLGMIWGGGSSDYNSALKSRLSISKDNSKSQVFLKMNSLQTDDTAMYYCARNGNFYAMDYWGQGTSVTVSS VL: QIVLTQSPAIMSASLGERVTMTCTASSSVSSSFLHWYQQKPGSSPQLWIYSTSNLAEGVPARFSGSGSGTSYSLTISSMEAEDAATYYCHQYHHSPYIYTFGGGTKLEIK" units_symbol=fold data_value=0.921
binder="KB001 mouse Fab variant VL T100P (Fab, V domains shown) VH: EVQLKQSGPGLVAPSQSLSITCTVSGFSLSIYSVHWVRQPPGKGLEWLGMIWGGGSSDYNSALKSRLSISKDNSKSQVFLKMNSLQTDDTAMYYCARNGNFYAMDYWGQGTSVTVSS VL: QIVLTQSPAIMSASLGERVTMTCTASSSVSSSFLHWYQQKPGSSPQLWIYSTSNLASGVPARFSGSGSGTSYSLTISSMEAEDAATYYCHQYHHSPYIYPFGGGTKLEIK" units_symbol=fold data_value=0.879

The binder KB001 mouse Fab variant VL Y97S (Fab, V domains shown) VH: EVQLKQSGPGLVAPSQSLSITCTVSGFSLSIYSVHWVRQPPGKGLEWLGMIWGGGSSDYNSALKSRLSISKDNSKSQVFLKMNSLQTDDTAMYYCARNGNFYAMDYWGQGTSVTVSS VL: QIVLTQSPAIMSASLGERVTMTCTASSSVSSSFLHWYQQKPGSSPQLWIYSTSNLASGVPARFSGSGSGTSYSLTISSMEAEDAATYYCHQYHHSPSIYTFGGGTKLEIK showed Ratio OD(Variant)/OD(WT) equal to 0.802

What the record says about KB001 mouse Fab variant VL T100I (Fab, V domains shown) VH: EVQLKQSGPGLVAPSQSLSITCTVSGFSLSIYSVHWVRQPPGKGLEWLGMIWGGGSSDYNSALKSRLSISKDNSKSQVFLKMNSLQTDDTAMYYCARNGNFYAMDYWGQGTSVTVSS VL: QIVLTQSPAIMSASLGERVTMTCTASSSVSSSFLHWYQQKPGSSPQLWIYSTSNLASGVPARFSGSGSGTSYSLTISSMEAEDAATYYCHQYHHSPYIYIFGGGTKLEIK : Ratio OD(Variant)/OD(WT) is 0.942

Just so you know, measured Ratio OD(Variant)/OD(WT) for KB001 mouse Fab variant VL H94Y (Fab, V domains shown) VH: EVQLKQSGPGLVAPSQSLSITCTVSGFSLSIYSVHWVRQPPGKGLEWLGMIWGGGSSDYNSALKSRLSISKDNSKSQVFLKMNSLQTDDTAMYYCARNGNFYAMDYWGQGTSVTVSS VL: QIVLTQSPAIMSASLGERVTMTCTASSSVSSSFLHWYQQKPGSSPQLWIYSTSNLASGVPARFSGSGSGTSYSLTISSMEAEDAATYYCHQYHYSPYIYTFGGGTKLEIK came out at 0.942

Value of measured Ratio OD(Variant)/OD(WT) for the entry KB001 mouse Fab variant VL S57L (Fab, V domains shown) VH: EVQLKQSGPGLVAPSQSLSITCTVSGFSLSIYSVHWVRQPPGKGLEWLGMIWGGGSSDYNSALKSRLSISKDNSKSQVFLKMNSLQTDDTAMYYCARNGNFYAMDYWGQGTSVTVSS VL: QIVLTQSPAIMSASLGERVTMTCTASSSVSSSFLHWYQQKPGSSPQLWIYSTSNLALGVPARFSGSGSGTSYSLTISSMEAEDAATYYCHQYHHSPYIYTFGGGTKLEIK : 0.958

Record KB001 mouse Fab variant VL Y97R (Fab, V domains shown) VH: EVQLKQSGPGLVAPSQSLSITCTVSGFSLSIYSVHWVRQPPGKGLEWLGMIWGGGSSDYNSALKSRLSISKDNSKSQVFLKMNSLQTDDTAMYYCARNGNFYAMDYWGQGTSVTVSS VL: QIVLTQSPAIMSASLGERVTMTCTASSSVSSSFLHWYQQKPGSSPQLWIYSTSNLASGVPARFSGSGSGTSYSLTISSMEAEDAATYYCHQYHHSPRIYTFGGGTKLEIK , field Ratio OD(Variant)/OD(WT): 0.975

For KB001 mouse Fab variant VL S95C (Fab, V domains shown) VH: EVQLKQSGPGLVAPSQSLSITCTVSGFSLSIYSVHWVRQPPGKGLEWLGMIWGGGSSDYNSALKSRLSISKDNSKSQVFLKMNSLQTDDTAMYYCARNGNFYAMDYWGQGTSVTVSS VL: QIVLTQSPAIMSASLGERVTMTCTASSSVSSSFLHWYQQKPGSSPQLWIYSTSNLASGVPARFSGSGSGTSYSLTISSMEAEDAATYYCHQYHHCPYIYTFGGGTKLEIK the binder record lists Ratio OD(Variant)/OD(WT) as 0.924

get_value(item= KB001 mouse Fab variant VL Y97K (Fab, V domains shown) VH: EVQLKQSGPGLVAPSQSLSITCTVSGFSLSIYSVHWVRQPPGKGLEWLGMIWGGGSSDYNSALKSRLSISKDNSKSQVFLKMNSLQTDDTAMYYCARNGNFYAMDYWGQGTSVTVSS VL: QIVLTQSPAIMSASLGERVTMTCTASSSVSSSFLHWYQQKPGSSPQLWIYSTSNLASGVPARFSGSGSGTSYSLTISSMEAEDAATYYCHQYHHSPKIYTFGGGTKLEIK , readout=Ratio OD(Variant)/OD(WT)) returns 0.829

Data origin, for the record: patent US20240400654A1
